Test system: MDA-MB-468
Assay: normalised viability (% of control), CellTiter-Blue; higher = more viable cells (about 100 = DMSO control)
Conditions: 10 nM; incubation time: 72 h
quantity.measured: normalised viability (%)
One number for each entry, in %.

As a guide, the following entries are already answered.
CC(C)Cn1cnc2c(N)nc3ccccc3c21
102
C[C@]12CC[C@@H]3c4ccc(O)cc4C[C@@H](CCCCCCCCC[S+]([O-])CCCC(F)(F)C(F)(F)F)[C@H]3[C@@H]1CC[C@@H]2O (some centres undefined)
97.5
O=C1CCC(N2C(=O)c3ccccc3C2=O)C(=O)N1 (centres undefined) [Thalidomide]
97.9

q: Quick one: normalised viability of `CN(N=O)C(=O)N[C@@H](C=O)[C@@H](O)[C@H](O)[C@H](O)CO` ?
a: 107
